system: RPMI-8226 leukemia; assay: NCI-60 one-dose screen, 48 h; conditions: 10 µM
The panel holds about 83,000 compounds, 20% with a hit somewhere; the sample as a whole holds those more often. Calls of active or inactive are those of the source. Rule for the calls: active = growth percent below 10; inactive = the rest.
Outcomes: YES (active), NO (inactive)

[[record]]
compound = "C[C@@H]1C[C@H]2C(=O)O[C@@H](C)C(NC(=O)[C@H](Cc3cc(F)cc(F)c3)NC(=O)Nc3ccc(OS(=O)(=O)F)cc3)C(=O)N3CCC[C@H]3C(=O)N3CCO[C@H](C)[C@H]3C(=O)N[C@@H](CO)C(=O)N2C1 (some centres undefined)"
classification = "NO"

[[record]]
compound = "CC(C)=CCc1c2c(c(O)c3c1O[C@]14C(=C[C@@H]5C[C@H]1C(C)(C)O[C@@]4(C/C=C(/C)C(=O)O)C5=O)C3=O)C=CC(C)(C)O2"
classification = "YES"

[[record]]
compound = "CC1=C[C@H]2O[C@@H]3C[C@H]4OC(=O)/C=C\\C=C\\[C@H]([C@@H](C)O)OCC/C(C)=C/C(=O)OC[C@@]2(CC1)[C@]4(C)[C@]31CO1"
classification = "YES"

[[record]]
compound = "COc1cc2c(cc1OC)[C@@H]1N(CC2)C(=O)c2ccccc2[C@@]1(C)C(=O)O"
classification = "NO"

[[record]]
compound = "CN(CCF)/N=N/c1nc[nH]c1C(N)=O"
classification = "NO"

[[record]]
compound = "Cc1ccc(CNc2nc3ccc(OC/C(=C/F)CN)cc3o2)cn1"
classification = "NO"

[[record]]
compound = "CC(=O)O[C@@H]1[C@@H]2O[C@H]2[C@@](C)(O)C(=O)[C@@H](C)C/C=C/[C@H]2[C@@H]3O[C@]3(C)[C@@H](C)C3[C@H](Cc4ccccc4)NC(=O)[C@@]312 (some centres undefined)"
classification = "NO"

[[record]]
compound = "CC1=C2C(=C[C@@](C)(COC(=O)c3ccc(S(=O)(=O)F)cc3)[C@@H]2OC(=O)c2ccc(S(=O)(=O)F)cc2)C(=O)[C@](C)(O)C12CC2"
classification = "NO"

[[record]]
compound = "C[C@@H]1CCC/C=C/[C@H]2C[C@@H](O)C[C@@H]2[C@@H](O)/C=C/C(=O)O1"
classification = "YES"

[[record]]
compound = "COc1cccc2c1cc([N+](=O)[O-])c1c(C(=O)O)cc3c(c12)OCO3"
classification = "NO"

[[record]]
compound = "CC1=C2C(=C[C@@](C)(COC(=O)c3ccc(S(=O)(=O)F)cc3)[C@@H]2O)C(=O)[C@](C)(O)C12CC2"
classification = "NO"

[[record]]
compound = "COC1[C@@H]2C[C@H]3C(C)(C)O[C@@](C/C=C(/C)C(=O)O)(C2=O)[C@]32Oc3c(CC=C(C)C)c4c(c(O)c3C(=O)[C@H]12)C=CC(C)(C)O4 (some centres undefined)"
classification = "YES"

[[record]]
compound = "CCC(C)[C@H]1C(=O)O[C@H](C(C)C)C(=O)N(C)[C@@H](C(C)C)C(=O)O[C@H](C(C)C)C(=O)N(C)[C@@H](C(C)C)C(=O)O[C@H](C(C)C)C(=O)N1C (some centres undefined)"
classification = "YES"

[[record]]
compound = "CC1=C(CN(O)C(N)=O)C2=C(C)C3(CC3)[C@@](C)(O)C(=O)C2=C1"
classification = "NO"

